meta.source: patent US20250304677A1

biological target: T1, human folate receptor alpha (hFRα), recombinant protein (human, UniProt P15328 25-233); experiment: BLI, FRα on AR2G biosensors, 1:1 model
T1 construct: Bought recombinant proteins (His-tagged, or biotinylated via Avi-tag, e.g. AcroBiosystems FO1-H82E2, F01-H52H1); also called hFOLR1; huFOLR1
T1 sequence (P15328 25-233 limits assumed): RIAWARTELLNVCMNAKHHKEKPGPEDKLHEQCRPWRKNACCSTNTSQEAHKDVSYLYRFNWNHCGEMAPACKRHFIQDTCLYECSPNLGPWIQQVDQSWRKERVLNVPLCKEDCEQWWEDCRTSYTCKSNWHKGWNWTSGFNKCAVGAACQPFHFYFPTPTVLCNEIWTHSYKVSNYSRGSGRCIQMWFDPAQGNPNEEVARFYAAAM
readoutName: kon (M⁻¹ s⁻¹)
# number only, unit M⁻¹ s⁻¹ dropped from output

Worked examples follow.
VHH 2MFR7 (family 1) (VHH, also called 2MFRO7) VHH: QVQLQESGGGLVQPGGSLRLSCAASGFPFSTYYMSWVRQAPGKGLEWVSGINSNGGVIDYADSVKGRFTISRDNAKNTLYLQLNSLKPEDTALYFCARGRAFVATMPSSLRGQGTQVTVSS    1.2e+06
VHH 3HFO26 (family 1) (VHH) VHH: QVQLQESGGGLVQPGGSLRITCVASGFPFSTYYMSWVRQAPGKGLEWVSGINSNGGVIDYADSVKGRFTISRDNAKNTLYLQLNSLKPEDTALYFCARGRAFVATMPSSLRGQGTQVTVSS    275000

Exercise: Fill blank: measured kon of the binder VHH 3MFR60 (family 10) (VHH) VHH: QVQLQESGGGLVQAGGSLRVSCAASGIIFSMNGMGWFRQAPGKQRELVASITSGGSTKYADSVKGRFTISRDNAKNTVYLQMNSLKPEDTAVYYCNIQFGSRWSTYWGQGTQVTVSS is ____.
Solution: 938000

Exercise: If you can, please state the reported kon value of VHH 2HFO42 (family 3) (VHH, also called 2HF042; Nb42) VHH: QVQLQESGGGLVQAGGSLRLSCAASGSGFSGMIMGWYRQVPGKQRELVATVTSHGTTNYADSVKGRFTISRDNAKNTVLLQMNSLKPEDTAVYYCNAHFPGIYWGKGTQVTVSS .
Solution: 101000

Exercise: # kon lookup, item VHH 2HFO19 (family 1) (VHH, also called Nb19) VHH: QVQLQESGGGLVQPGGSLRVSCAASGFPFSTVYMSWVRQAPGKGLEWVSGINNDGGVIDYADSVKGRFTISRDNAKNTLYLQLNSLKPEDTALYFCARGRSFVATLSSSLRGQGTQVTVSS
Solution: 233000
